# TARGET SYSTEM: 5-hydroxytryptamine receptor 1A (Homo sapiens, UniProt P08908)
# Sequence (P08908 whole entry): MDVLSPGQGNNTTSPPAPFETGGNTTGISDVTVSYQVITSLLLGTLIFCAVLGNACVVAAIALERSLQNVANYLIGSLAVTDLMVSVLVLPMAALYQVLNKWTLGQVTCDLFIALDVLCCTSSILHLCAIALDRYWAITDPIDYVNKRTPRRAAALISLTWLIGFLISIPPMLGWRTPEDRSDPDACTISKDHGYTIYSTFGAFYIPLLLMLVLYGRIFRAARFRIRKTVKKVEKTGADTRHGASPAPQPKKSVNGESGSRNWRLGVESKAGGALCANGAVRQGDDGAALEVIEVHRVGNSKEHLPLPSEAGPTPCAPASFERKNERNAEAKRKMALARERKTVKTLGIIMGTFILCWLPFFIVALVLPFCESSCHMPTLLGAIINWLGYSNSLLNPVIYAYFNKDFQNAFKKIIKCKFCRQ
# ASSAY PROTOCOL: Displacement of [3H]8-OH-DPAT from human recombinant 5-HT1A receptor expressed in HeLa cells after 30 mins by liquid scintillation counting

MOLECULE	TARGET SYSTEM	QUANTITY UNIT	Ki
COc1ccccc1N1CCN(CC2COC3(CCN(S(=O)(=O)c4ccc([N+](=O)[O-])cc4)CC3)O2)CC1 (stereo not given)	5-hydroxytryptamine receptor 1A (Homo sapiens, UniProt P08908)	µM	0.0245
COc1ccccc1N1CCN(CC2COC3(CCN(S(=O)(=O)c4ccc(C)cc4)CC3)O2)CC1 (stereo not given)	5-hydroxytryptamine receptor 1A (Homo sapiens, UniProt P08908)	µM	0.0269
COc1ccccc1N1CCN(CC2COC3(CCN(C(=O)c4ccc(C(F)(F)F)cc4)CC3)O2)CC1 (stereo not given)	5-hydroxytryptamine receptor 1A (Homo sapiens, UniProt P08908)	µM	0.0501
COc1ccccc1N1CCN(CC2COC3(CCCCC3)O2)CC1 (stereo not given)	5-hydroxytryptamine receptor 1A (Homo sapiens, UniProt P08908)	µM	0.00513
COc1ccccc1N1CCN(CC2COC3(CCN(C(=O)Nc4ccccc4)CC3)O2)CC1 (stereo not given)	5-hydroxytryptamine receptor 1A (Homo sapiens, UniProt P08908)	µM	0.0331
CCCCNC(=O)N1CCC2(CC1)OCC(CN1CCN(c3ccccc3OC)CC1)O2 (stereo not given)	5-hydroxytryptamine receptor 1A (Homo sapiens, UniProt P08908)	µM	0.0794
COc1ccccc1N1CCN(CC2COC3(CCS(=O)(=O)CC3)O2)CC1 (stereo not given)	5-hydroxytryptamine receptor 1A (Homo sapiens, UniProt P08908)	µM	0.0813
COc1ccccc1N1CCN(CC2COC3(CCN(S(=O)(=O)c4ccc(OC(F)(F)F)cc4)CC3)O2)CC1 (stereo not given)	5-hydroxytryptamine receptor 1A (Homo sapiens, UniProt P08908)	µM	0.0692
COc1ccccc1N1CCN(CC2COC3(CC[S+]([O-])CC3)O2)CC1 (stereo not given)	5-hydroxytryptamine receptor 1A (Homo sapiens, UniProt P08908)	µM	0.117
COc1ccccc1N1CCN(CC2COC3(CCN(S(=O)(=O)c4ccccc4)CC3)O2)CC1 (stereo not given)	5-hydroxytryptamine receptor 1A (Homo sapiens, UniProt P08908)	µM	0.0525
COc1ccccc1N1CCN(CC2COC3(CCNCC3)O2)CC1 (stereo not given)	5-hydroxytryptamine receptor 1A (Homo sapiens, UniProt P08908)	µM	0.158
COc1ccccc1N1CCN(CC2COC3(CCN(Cc4ccccc4)CC3)O2)CC1 (stereo not given)	5-hydroxytryptamine receptor 1A (Homo sapiens, UniProt P08908)	µM	0.0145
COc1ccccc1N1CCN(CC2COC3(CCN(C(=O)C4CCCCC4)CC3)O2)CC1 (stereo not given)	5-hydroxytryptamine receptor 1A (Homo sapiens, UniProt P08908)	µM	0.0204
COc1ccccc1N1CCN(CC2COC3(CCN(c4ccccn4)CC3)O2)CC1 (stereo not given)	5-hydroxytryptamine receptor 1A (Homo sapiens, UniProt P08908)	µM	0.00891
COc1ccccc1N1CCN(CC2COC3(CCN(S(=O)(=O)c4ccc(Cl)cc4)CC3)O2)CC1 (stereo not given)	5-hydroxytryptamine receptor 1A (Homo sapiens, UniProt P08908)	µM	0.0372
COc1ccccc1N1CCN(CC2COC3(CCN(C(=O)c4ccccc4)CC3)O2)CC1 (stereo not given)	5-hydroxytryptamine receptor 1A (Homo sapiens, UniProt P08908)	µM	0.0589
COc1ccccc1N1CCN(CC2COC3(CCN(C(C)=O)CC3)O2)CC1 (stereo not given)	5-hydroxytryptamine receptor 1A (Homo sapiens, UniProt P08908)	µM	0.0646
COc1ccccc1N1CCN(CC2COC3(CCN(C(=O)C(F)(F)F)CC3)O2)CC1 (stereo not given)	5-hydroxytryptamine receptor 1A (Homo sapiens, UniProt P08908)	µM	0.324
COc1ccccc1N1CCN(CC2COC3(CCN(C(=O)c4ccco4)CC3)O2)CC1 (stereo not given)	5-hydroxytryptamine receptor 1A (Homo sapiens, UniProt P08908)	µM	0.0427
COc1ccccc1N1CCN(CC2COC3(CCN(S(C)(=O)=O)CC3)O2)CC1 (stereo not given)	5-hydroxytryptamine receptor 1A (Homo sapiens, UniProt P08908)	µM	0.145
